target_desc: extracellular domain of the human erythropoietin receptor (EPO binding protein, EBP) (Homo sapiens, UniProt P19235)
Construct: made in house; host or cells: E. coli
Sequence (P19235 25-250 limits assumed): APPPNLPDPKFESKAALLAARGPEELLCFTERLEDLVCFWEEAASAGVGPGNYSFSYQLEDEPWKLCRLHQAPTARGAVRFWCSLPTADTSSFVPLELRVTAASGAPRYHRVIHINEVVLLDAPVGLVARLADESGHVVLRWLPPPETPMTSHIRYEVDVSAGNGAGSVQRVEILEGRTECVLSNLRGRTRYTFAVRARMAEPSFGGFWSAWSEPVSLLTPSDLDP
experiment_summary: Immobilized EBP based [125I]EPO competition binding assay
assay_context: IC50 in [125I]EPO competition on EBP beads, relative to Seq. I. D. No. 8 (IC50 5 μM)
Bridge positions count the residues as written; N and C are the ends. Ends that are not written are not given here.
metric: Relative Binding (binding relative to Seq. I. D. No. 8)
// print number alone

# substance, reported_result
rows = [
    ("SAP2/Seq. I. D. No. 20 covalent dimer: PEG (SPA2) dimer of peptide Ac-GGTYSCHFGPLTWVCKPQGG, Example 5 (Ac-GGTYSCHFGPLTWVCKPQGG-NH2; disulfide 6-15 (inferred); also: PEG (SPA2) covalent dimer)", 12),
]

Now for the substance whose Relative Binding (binding relative to Seq. I. D. No. 8) we want.
Ask: Any idea what its Relative Binding (binding relative to Seq. I. D. No. 8) is? The substance is SAP2/Seq. I. D. No. 8 covalent dimer #1: PEG (SPA2, MW ca. 3400) dimer of peptide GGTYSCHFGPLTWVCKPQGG, lot #1, Example 2 (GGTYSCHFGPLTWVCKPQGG-NH2; disulfide 6-15 (inferred); not fully specified)
Result: 4
